- method: qHTS RealTime-Glo MT Cell Viability Assay in HepG2 cells - 40 hour (AID 1224870); note: nearly all actives have a fitted effect of over 50% in size
- testConditions: RealTime-Glo luminescence; series mostly up to 76.8 µM
Results filed as inconclusive are left out. Active and inactive are the calls of the source. Calls come from the whole dose curve; as a rule, active = well fitted cell-killing curve with a large enough effect in the repeat runs; inconclusive = weak or mixed curves, or effect the other way; inactive = flat fitted curve, though single readings scatter.
Write down the outcome that applies. Available outcomes: active, inactive

Observe how each entry below is paired with its result.
[
  {
    "molecule": "O=[N+]([O-])c1cc(C(F)(F)F)c(Cl)c([N+](=O)[O-])c1Cl",
    "class": "active"
  },
  {
    "molecule": "CCOP(=S)(OCC)SCS(=O)(=O)CC",
    "class": "inactive"
  },
  {
    "molecule": "CC(C)CBr",
    "class": "inactive"
  },
  {
    "molecule": "C[C@]12Cc3nonc3C[C@@H]1CC[C@@H]1[C@@H]2CC[C@@]2(C)[C@H]1CC[C@]2(C)O",
    "class": "inactive"
  }
]

Record request — test call for C[C@@H]1O[C@@H](O[C@@H]2C=C3CC[C@@H]4[C@H](CC[C@]5(C)[C@@H](c6ccc(=O)oc6)CC[C@]45O)[C@@]3(C)CC2)[C@H](O)[C@H](O)[C@H]1O inactive

Next record, please: CCOP(=O)(NC(C)C)Oc1ccc(SC)c(C)c1 (stereo not given) inactive

Next record, please: Clc1ccc(C(c2ccccc2Cl)C(Cl)(Cl)Cl)cc1 (stereo not given) inactive

Next record, please: CC(=[OH+])/C=C(/C)[O-].CC(=[OH+])/C=C(\C)[O-].CC(=[OH+])/C=C(\C)[O-].[Fe] inactive

Next record, please: Cc1ccc(OP(=O)(Oc2ccccc2)Oc2ccccc2)cc1 inactive

Next record, please: Cc1ccc(C(=O)Cl)cc1 inactive

Next record, please: C1CCC2CCCCC2C1 (stereo not given) inactive

Next record, please: Cc1cc(C(C)(C)c2cc(C)c(O)c(C)c2)cc(C)c1O inactive

Next record, please: BrC(Br)C(Br)(Br)Br inactive

Next record, please: COc1cc(N)c(Cl)cc1C(=O)NC1CN2CCC1CC2 (stereo not given) inactive

Next record, please: CSCCCN=C=S inactive

Next record, please: CCCCN(CCCC)C(=S)[S-].CCCCN(CCCC)C(=S)[S-].[Zn+2] active
